Experiment: Bioavailability study in mice
Format: in vivo
Details: mouse, in vivo
quantityName: Cmax

Cc1ccc(NC(=O)c2cc(C(F)(F)F)cc(C(F)(F)F)c2)cc1Nc1nccc(-c2cccnc2)n1 = 93.7 ng/mL

---

Test: Bioavailability study in mice
Type: in vivo
Details: mouse, in vivo
quantityName: Tmax (h)

Cc1ccc(NC(=O)c2cc(C(F)(F)F)cc(C(F)(F)F)c2)cc1Nc1nccc(-c2cccnc2)n1 = 6

---

solubility reference
Test: Solubility by the shake flask method
Settings: 0.1N HCl, 25 °C, simulated gastric fluid, thermodynamic from solid
quantityName: solubility

Cc1ccc(NC(=O)c2cc(C(F)(F)F)cc(C(F)(F)F)c2)cc1Nc1nccc(-c2cccnc2)n1.Cc1ccc(S(=O)(=O)O)cc1 [AN-019T] = 40.2 µg/mL
Cc1ccc(NC(=O)c2cc(C(F)(F)F)cc(C(F)(F)F)c2)cc1Nc1nccc(-c2cccnc2)n1 = 1.3 µg/mL
